# System: Raji cells (STEAP2 negative)
# method notes: FACS binding to STEAP2-negative Raji cells
# particulars: human-Fc antibodies
readout kind: Raji Avg F.A.B (Fold Above Background) (fold)
Express the result in fold but write the number alone.

Ask: Would you mind telling me what Raji Avg F.A.B (Fold Above Background) value was observed for H1H11162N: human-Fc anti-STEAP2 antibody, HCVR/LCVR SEQ ID NOs 250/258 (antibody, V domains shown, human Fc) VH: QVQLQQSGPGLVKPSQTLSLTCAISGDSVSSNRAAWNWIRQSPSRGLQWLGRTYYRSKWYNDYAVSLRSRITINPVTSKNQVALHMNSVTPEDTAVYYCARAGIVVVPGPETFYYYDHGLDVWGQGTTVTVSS VL: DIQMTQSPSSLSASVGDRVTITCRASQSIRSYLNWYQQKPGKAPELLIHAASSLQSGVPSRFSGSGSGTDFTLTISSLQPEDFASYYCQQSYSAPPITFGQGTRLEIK ?
Result: 2
